Recorded total FIC50 for the following molecules
- System: Mycobacterium tuberculosis Erdman (autoluminescent)
- test.method.notes: total FIC50 (Loewe) at 50% inhibition, three-drug combination (log2); higher = more antagonistic
- assay.context: in vitro model: valerate; time point: constant (~7 days, model-specific)
// no unit, no text: just the number

molecule: NNC(=O)c1ccncc1 [isoniazid] + O=[N+]([O-])c1cn2c(n1)OC[C@@H](OCc1ccc(OC(F)(F)F)cc1)C2 [pretomanid] + CO[C@H]1/C=C/O[C@@]2(C)Oc3c(C)c(O)c4c(O)c(c(/C=N/N5CCN(C)CC5)c(O)c4c3C2=O)NC(=O)/C(C)=C\C=C\[C@H](C)[C@H](O)[C@@H](C)[C@@H](O)[C@@H](C)[C@H](OC(C)=O)[C@@H]1C [rifampicin]
quantity: total FIC50
result.value: 3.28

Give total FIC50 for the following molecule: CC(C)/N=c1\cc2n(-c3ccc(Cl)cc3)c3ccccc3nc-2cc1Nc1ccc(Cl)cc1 [clofazimine] + CC[C@@H](CO)NCCN[C@@H](CC)CO [ethambutol] + CO[C@H]1/C=C/O[C@@]2(C)Oc3c(C)c(O)c4c(O)c(c(/C=N/N5CCN(C)CC5)c(O)c4c3C2=O)NC(=O)/C(C)=C\C=C\[C@H](C)[C@H](O)[C@@H](C)[C@@H](O)[C@@H](C)[C@H](OC(C)=O)[C@@H]1C [rifampicin]
0.749
